- experimental.target: CKIδ (Homo sapiens, UniProt P48730)
- Sequence (P48730 whole entry, species assumed): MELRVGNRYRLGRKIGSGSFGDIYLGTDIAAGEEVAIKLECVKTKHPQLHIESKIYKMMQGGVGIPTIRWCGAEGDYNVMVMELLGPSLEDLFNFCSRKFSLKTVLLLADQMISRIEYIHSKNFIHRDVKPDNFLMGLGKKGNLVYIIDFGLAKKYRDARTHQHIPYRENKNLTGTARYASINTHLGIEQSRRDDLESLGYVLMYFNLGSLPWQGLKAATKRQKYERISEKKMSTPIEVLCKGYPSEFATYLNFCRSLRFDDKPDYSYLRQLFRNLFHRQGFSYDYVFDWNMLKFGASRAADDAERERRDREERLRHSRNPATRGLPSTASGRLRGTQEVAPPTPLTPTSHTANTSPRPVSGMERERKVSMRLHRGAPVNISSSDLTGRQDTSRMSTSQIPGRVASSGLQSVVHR

| molecule.smiles | IC50, µM |
| --- | --- |
| CC(C)n1cnc2c(NCc3cccc(C(F)(F)F)c3)ncnc21 | 8.8 |

---

- experimental.target: CKIδ (Homo sapiens, UniProt P48730)
- procedure.summary: Cell-based PER1 degradation assay (PER1-LUC), CKIδ
- test.parameters: HEK293T cells, 24 h treatment; from Figure 4E

| molecule.smiles | readout.units | EC50 |
| --- | --- | --- |
| CC(C)n1cnc2c(NCc3cccc(C(F)(F)F)c3)ncnc21 | µM | 9.7 |

---

- experimental.target: UniProt P48729
- procedure.summary: Cell-based PER1 degradation assay (PER1-LUC), CKIα
- test.parameters: HEK293T cells, 24 h treatment; from Figure 4E

| compound | readout.units | EC50 |
| --- | --- | --- |
| CC(C)n1cnc2c(NCc3cccc(C(F)(F)F)c3)ncnc21 [Longdaysin] | µM | 9.2 |

---

This section lists IC50 readings for CDK7 (Homo sapiens, UniProt P50613).

| molecule.smiles | experimental.target | IC50 (µM) |
| --- | --- | --- |
| CC(C)n1cnc2c(NCc3cccc(C(F)(F)F)c3)ncnc21 | CDK7 (Homo sapiens, UniProt P50613) | 29 |
| CC(C)n1cnc2c(NCc3ccccc3)ncnc21 | CDK7 (Homo sapiens, UniProt P50613) | 29 |

---

Listed here: molecules with reported IC50 for CKIα (Homo sapiens).
observable: IC50 (µM)

| molecule.smiles | observable | reported |
| --- | --- | --- |
| CC(C)n1cnc2c(NCc3cccc(C(F)(F)F)c3)ncnc21 | IC50 | 5.6 |
| CC(C)n1cnc2c(NCc3ccccc3)ncnc21 | IC50 | 23 |
